tested on: P. falciparum strain HB3 gametocytes; assay: alamarBlue gametocyte viability assay, strain HB3; conditions: Plasmodium falciparum, HB3, read-out: IC50 against HB3 gametocytes
Please go through the items and note down their IC50.
Answers are plain numbers, in nM.

Cc1[nH]c2ccccc2c1CCNCc1ccc(/C=C/C(=O)NO)cc1 [Panobinostat]	118

The record that follows has no IC50 shown yet.
IC50 of COc1cc(NC(C)CCCN)c2ncccc2c1 (centres unmarked) [Primaquine, primaquine] on P. falciparum strain HB3 gametocytes?
680

###

tested on: Asexual parasites of P. falciparum strain 3D7; experiment: SYBR Green viability assay on asexual parasites; format: cell-based, Plasmodium falciparum; settings: read-out: IC50 in viability assay using asexual parasites
Please go through the items and note down their IC50.

Nc1ccc(-c2ccc3ncc4ccc(=O)n(-c5cccc(C(F)(F)F)c5)c4c3c2)cn1 [Torin 2]	0.00275 µM

The record that follows has no IC50 shown yet.
Look up IC50 for this compound: CCC(=O)N1CCN(c2ccc(-n3c(=O)ccc4cnc5ccc(-c6cnc7ccccc7c6)cc5c43)cc2C(F)(F)F)CC1 [Torin 1, reference compound]
0.215 µM

###

system: P. falciparum strain Dd2 gametocytes; experiment: alamarBlue gametocyte viability assay, strain Dd2; settings: Plasmodium falciparum, DD2, read-out: Dd2-IC50, Table 3; 11 concentrations, 1:3 dilution, three times
property: pIC50
Answers are plain numbers, as −log10 of the molar value.

Look up pIC50 for this compound: CN(C)c1ccc2nc3ccc(=[N+](C)C)cc-3sc2c1
6.28

###

tested on: P. falciparum strain 3D7 gametocytes; test: alamarBlue gametocyte viability assay, strain 3D7; details: Plasmodium falciparum, 3D7, read-out: IC50 against gametocytes
property: IC50

CC[C@@H](C(=O)O)[C@@H]1O[C@@H]([C@@H](C)[C@H](O)[C@H](C)C(=O)[C@H](CC)[C@H]2O[C@]3(C=C[C@@H](O)[C@]4(CC[C@@](C)([C@H]5CC[C@](O)(CC)[C@H](C)O5)O4)O3)[C@H](C)C[C@@H]2C)[C@@H](C)C[C@@H]1C [Narasin]	3 to 50 nM
CO[C@@H]1[C@@H](OC)[C@H](C)[C@@](O)(CC(=O)O)O[C@H]1[C@H](C)[C@H]1O[C@@]2(CC[C@@](C)([C@H]3CC[C@@](C)([C@@H]4O[C@@H]([C@H]5O[C@](C)(O)[C@H](C)C[C@@H]5C)C[C@@H]4O[C@@H]4C[C@H](OC)[C@@H](OC)[C@H](C)O4)O3)O2)C[C@H](O)[C@H]1C [Maduramicin]	3 to 50 nM

The record that follows has no IC50 shown yet.
Look up IC50 for this compound: CCNC(=O)c1noc(-c2cc(C(C)C)c(O)cc2O)c1-c1ccc(CN2CCOCC2)cc1 [NVP-AUY922]
3 to 50 nM

###

tested on: HepG2 cells; test: Cytotoxicity in mammalian HepG2 cell line; conditions: Table 2; HepG2
Please go through the items and note down their % Max response.
// unit must come after the numeric part

Worked examples, 4 compounds total:
CC1=C(CO)C(=O)O[C@@H]([C@@H](C)[C@H]2CC[C@H]3[C@@H]4C[C@H]5O[C@]56[C@@H](O)C=CC(=O)[C@]6(C)[C@H]4CC[C@]23C)C1	−80%
CC1(C)OC2=C(C(=O)c3ccccc3C2=O)[C@H](NCc2ccccc2)[C@@H]1O	−86%
COC(=O)C[C@](O)(CCCC(C)(C)O)C(=O)O[C@@H]1C(OC)=C[C@]23CCCN2CCc2cc4c(cc2[C@H]13)OCO4	−27%
COc1ncc(-c2ccc3nccc(-c4ccnnc4)c3c2)cc1NS(=O)(=O)c1ccc(F)cc1F	33%

Could I get % Max response for every one of these entries?
1. CC(=O)OC[C@H]1O[C@@H]([S-])[C@H](OC(C)=O)[C@@H](OC(C)=O)[C@@H]1OC(C)=O.CCP(CC)CC.[Au+]
2. C[C@H]1[C@@H](O)O[C@@H]2O[C@@]3(C)CC[C@H]4[C@H](C)CC[C@@H]1[C@@]24OO3
3. CCN(CCO)CCCOc1ccc2c(Nc3cc(CC(=O)Nc4cccc(F)c4)[nH]n3)ncnc2c1

1: −98%; 2: 20%; 3: 11%
